- Tested on: HeLa Kyoto
- method: thermal stability score vs G1/S (z-score of summed log2 fold changes over temperatures); higher = more thermally stable than in G1/S
- conditions: cell cycle stage: mitosis
quantity-measured: thermal stability score

record-sequence	system-name	observed
MVWPWVAMASRWGPLIGLAPCCLWLLGAVLLMDASARPANHSSTRERVANREENEILPPDHLNGVKLEMDGHLNRGFHQEVFLGKDLGGFDEDAEPRRSRRKLMVIFSKVDVNTDRKISAKEMQRWIMEKTAEHFQEAMEESKTHFRAVDPDGDGHVSWDEYKVKFLASKGHSEKEVADAIRLNEELKVDEETQEVLENLKDRWYQADSPPADLLLTEEEFLSFLHPEHSRGMLRFMVKEIVRDLDQDGDKQLSVPEFISLPVGTVENQQGQDIDDNWVKDRKKEFEELIDSNHDGIVTAEELESYMDPMNEYNALNEAKQMIAVADENQNHHLEPEEVLKYSEFFTGSKLVDYARSVHEEF [SDF4]	HeLa Kyoto	3

###

- Test system: HeLa Kyoto
- method: thermal stability score vs G1/S (z-score of summed log2 fold changes over temperatures); higher = more thermally stable than in G1/S
- conditions: cell cycle stage: early G1 (4.5 h after nocodazole release)
Readings of thermal stability score for the listed sequences

record-sequence	thermal stability score
MVGREKELSIHFVPGSCRLVEEEVNIPNRRVLVTGATGLLGRAVHKEFQQNNWHAVGCGFRRARPKFEQVNLLDSNAVHHIIHDFQPHVIVHCAAERRPDVVENQPDAASQLNVDASGNLAKEAAAVGAFLIYISSDYVFDGTNPPYREEDIPAPLNLYGKTKLDGEKAVLENNLGAAVLRIPILYGEVEKLEESAVTVMFDKVQFSNKSANMDHWQQRFPTHVKDVATVCRQLAEKRMLDPSIKGTFHWSGNEQMTKYEMACAIADAFNLPSSHLRPITDSPVLGAQRPRNAQLDCSKLETLGIGQRTPFRIGIKESLWPFLIDKRWRQTVFH [MAT2B]	-0.304
MAAPALRLCHIAFHVPAGQPLARNLQRLFGFQPLASREVDGWRQLALRSGDAVFLVNEGAGSGEPLYGLDPRHAVPSATNLCFDVADAGAATRELAALGCSVPVPPVRVRDAQGAATYAVVSSPAGILSLTLLERAGYRGPFLPGFRPVSSAPGPGWVSRVDHLTLACTPGSSPTLLRWFHDCLGFCHLPLSPGEDPELGLEMTAGFGLGGLRLTALQAQPGSIVPTLVLAESLPGATTRQDQVEQFLARHKGPGLQHVGLYTPNIVEATEGVATAGGQFLAPPGAYYQQPGKERQIRAAGHEPHLLARQGILLDGDKGKFLLQVFTKSLFTEDTFFLELIQRQGATGFGQGNIRALWQSVQEQSARSQEA [HPDL]	1.41
MAAAANSGSSLPLFDCPTWAGKPPPGLHLDVVKGDKLIEKLIIDEKKYYLFGRNPDLCDFTIDHQSCSRVHAALVYHKHLKRVFLIDLNSTHGTFLGHIRLEPHKPQQIPIDSTVSFGASTRAYTLREKPQTLPSAVKGDEKMGGEDDELKGLLGLPEEETELDNLTEFNTAHNKRISTLTIEEGNLDIQRPKRKRKNSRVTFSEDDEIINPEDVDPSVGRFRNMVQTAVVPVKKKRVEGPGSLGLEESGSRRMQNFAFSGGLYGGLPPTHSEAGSQPHGIHGTALIGGLPMPYPNLAPDVDLTPVVPSAVNMNPAPNPAVYNPEAVNEPKKKKYAKEAWPGKKPTPSLLI [PPP1R8]	0.0118
MLPLSIKDDEYKPPKFNLFGKISGWFRSILSDKTSRNLFFFLCLNLSFAFVELLYGIWSNCLGLISDSFHMFFDSTAILAGLAASVISKWRDNDAFSYGYVRAEVLAGFVNGLFLIFTAFFIFSEGVERALAPPDVHHERLLLVSILGFVVNLIGIFVFKHGGHGHSHGSGHGHSHSLFNGALDQAHGHVDHCHSHEVKHGAAHSHDHAHGHGHFHSHDGPSLKETTGPSRQILQGVFLHILADTLGSIGVIASAIMMQNFGLMIADPICSILIAILIVVSVIPLLRESVGILMQRTPPLLENSLPQCYQRVQQLQGVYSLQEQHFWTLCSDVYVGTLKLIVAPDADARWILSQTHNIFTQAGVRQLYVQIDFAAM [SLC30A7]	0.255

###

- Test system: HeLa Kyoto
- method: thermal stability score vs G1/S (z-score of summed log2 fold changes over temperatures); higher = more thermally stable than in G1/S
- conditions: cell cycle stage: early G1 (4.5 h after nocodazole release)
quantity-measured: thermal stability score

record-sequence	observed
MDRTCEERPAEDGSDEEDPDSMEAPTRIRDTPEDIVLEAPASGLAFHPARDLLAAGDVDGDVFVFSYSCQEGETKELWSSGHHLKACRAVAFSEDGQKLITVSKDKAIHVLDVEQGQLERRVSKAHGAPINSLLLVDENVLATGDDTGGICLWDQRKEGPLMDMRQHEEYIADMALDPAKKLLLTASGDGCLGIFNIKRRRFELLSEPQSGDLTSVTLMKWGKKVACGSSEGTIYLFNWNGFGATSDRFALRAESIDCMVPVTESLLCTGSTDGVIRAVNILPNRVVGSVGQHTGEPVEELALSHCGRFLASSGHDQRLKFWDMAQLRAVVVDDYRRRKKKGGPLRALSSKTWSTDDFFAGLREEGEDSMAQEEKEETGDDSD [WDR55]	-0.454
MLVSGRRRLLTVLLQAQKWPFQPSRDMRLVQFRAPHLVGPHLGLETGNGGGVINLNAFDPTLPKTMTQFLEQGEATLSVARRALAAQLPVLPRSEVTFLAPVTRPDKVVCVGMNYVDHCKEQNVPVPKEPIIFSKFASSIVGPYDEVVLPPQSQEVDWEVELAVVIGKKGKHIKATDAMAHVAGFTVAHDVSARDWQMRRNGKQWLLGKTFDTFCPLGPALVTKDSVADPHNLKICCRVNGEVVQSGNTNQMVFKTEDLIAWVSQFVTFYPGDVILTGTPPGVGVFRKPPVFLKKGDEVQCEIEELGVIINKVV [FAHD2A]	-1.17
MEERERGARSAGAGSPARPPSPRLDVSSDSFDPLLALYAPRLPPIPYPNAPCFNNVAEYESFLRTGVRGGGRGRGRARGAAAGSGVPAAPGPSGRTRRRPDAPAPDPERIQRLRRLMVAKEEGDGAAGAGRRGPGRSRKAPRNVLTRMPLHEGSPLGELHRCIREGVKVNVHIRTFKGLRGVCTGFLVAFDKFWNMALTDVDETYRKPVLGKAYERDSSLTLTRLFDRLKLQDSSKKEADSKSAVEDSTLSRYSQTSTWKLASVWGRADTGRGSHKRSRSVPSSLQASAREESRSELSGRTTRTDGSSVGGTFSRATTLSRGQSRKKKRKPKVDYQQVFTRHINQIFIRGENVLLVHLAQ [LSM11]	0.976
MGLLAFLKTQFVLHLLVGFVFVVSGLVINFVQLCTLALWPVSKQLYRRLNCRLAYSLWSQLVMLLEWWSCTECTLFTDQATVERFGKEHAVIILNHNFEIDFLCGWTMCERFGVLGSSKVLAKKELLYVPLIGWTWYFLEIVFCKRKWEEDRDTVVEGLRRLSDYPEYMWFLLYCEGTRFTETKHRVSMEVAAAKGLPVLKYHLLPRTKGFTTAVKCLRGTVAAVYDVTLNFRGNKNPSLLGILYGKKYEADMCVRRFPLEDIPLDEKEAAQWLHKLYQEKDALQEIYNQKGMFPGEQFKPARRPWTLLNFLSWATILLSPLFSFVLGVFASGSPLLILTFLGFVGAASFGVRRLIGVTEIEKGSSYGNQEFKKKE [AGPAT3]	-0.691

###

- Tested on: HeLa Kyoto
- method: solubility change mitosis vs G1/S (difference of NP-40 vs SDS log2 ratios) (log2 ratio difference); higher = more soluble in mitosis
Readings of solubility change mitosis (log2) for the listed sequences

record-sequence	solubility change mitosis (log2)
MADGELNVDSLITRLLEVRGCRPGKIVQMTEAEVRGLCIKSREIFLSQPILLELEAPLKICGDIHGQYTDLLRLFEYGGFPPEANYLFLGDYVDRGKQSLETICLLLAYKIKYPENFFLLRGNHECASINRIYGFYDECKRRFNIKLWKTFTDCFNCLPIAAIVDEKIFCCHGGLSPDLQSMEQIRRIMRPTDVPDTGLLCDLLWSDPDKDVQGWGENDRGVSFTFGADVVSKFLNRHDLDLICRAHQVVEDGYEFFAKRQLVTLFSAPNYCGEFDNAGGMMSVDETLMCSFQILKPSEKKAKYQYGGLNSGRPVTPPRTANPPKKR [PPP1CB]	0.0171
MNMTQARVLVAAVVGLVAVLLYASIHKIEEGHLAVYYRGGALLTSPSGPGYHIMLPFITTFRSVQTTLQTDEVKNVPCGTSGGVMIYIDRIEVVNMLAPYAVFDIVRNYTADYDKTLIFNKIHHELNQFCSAHTLQEVYIELFDQIDENLKQALQKDLNLMAPGLTIQAVRVTKPKIPEAIRRNFELMEAEKTKLLIAAQKQKVVEKEAETERKKAVIEAEKIAQVAKIRFQQKVMEKETEKRISEIEDAAFLAREKAKADAEYYAAHKYATSNKHKLTPEYLELKKYQAIASNSKIYFGSNIPNMFVDSSCALKYSDIRTGRESSLPSKEALEPSGENVIQNKESTG [ERLIN1]	-0.0762
